- Test system: crabgrass
- protocol_notes: Test B pre/postemergence crabgrass
- Assay type: in vivo, Digitaria sanguinalis
- experimental_context: Rate 500 g/ha, Postemergence; scale 0 to 10
Crabgrass plant response rating for assorted molecules
Reply with just the number.

Below are worked cases with known answers.
Cc1nc(C)c(-n2c(=O)on(C(=O)N(c3ccc(Cl)cc3)C(C)C)c2=O)s1 ... 0
CC(C)N(C(=O)n1oc(=O)n(C(C)(C)C)c1=O)c1ccccc1 ... 9

Let us examine a further case.
Need Crabgrass plant response rating of CC(C)N(C(=O)n1oc(=O)n(C(C)c2ccccc2)c1=O)c1ccc(Cl)cc1 (stereo not drawn) , thanks.
4

* * *

- Tested on: sugar beet
- protocol_notes: Test B pre/postemergence sugar beet
- Format: in vivo, Beta vulgaris
- experimental_context: Rate 250 g/ha, Postemergence; scale of 0 to 10 where 0 is no effect and 10 is complete control
Plant response rating, Sugarbeets for assorted compounds
Reply with just the number.

Below are worked cases with known answers.
CCc1cccc(CC)c1-n1c(=O)on(C(=O)N(c2ccccc2)C(C)C)c1=O ... 0
COCCOCn1c(=O)on(C(=O)N(c2ccccc2)C(C)C)c1=O ... 2

What value of Plant response rating, Sugarbeets on sugar beet does COCC(C)N(C(=O)n1oc(=O)n(-c2ccccc2C)c1=O)c1ccc(F)cc1 (centres unmarked) have?
0

What value of Plant response rating, Sugarbeets on sugar beet does `CCCCn1c(=O)on(C(=O)N(c2ccc(Cl)cc2)C(C)C)c1=O` have?
0

What value of Plant response rating, Sugarbeets on sugar beet does `CCCCn1c(=O)on(C(=O)N(c2ccccc2)C(C)C)c1=O` have?
0
